Provenance of the data: patent US20240092897A1

- target or test system: T1, Human Siglec-15, His Tag (human Siglec-15 full-length extracellular domain linked with His tag) (human, UniProt Q6ZMC9 20-263)
- T1 construct: Bought from ACROBiosystems; also called Siglec-15 protein; SG5-H52H3
- T1 sequence: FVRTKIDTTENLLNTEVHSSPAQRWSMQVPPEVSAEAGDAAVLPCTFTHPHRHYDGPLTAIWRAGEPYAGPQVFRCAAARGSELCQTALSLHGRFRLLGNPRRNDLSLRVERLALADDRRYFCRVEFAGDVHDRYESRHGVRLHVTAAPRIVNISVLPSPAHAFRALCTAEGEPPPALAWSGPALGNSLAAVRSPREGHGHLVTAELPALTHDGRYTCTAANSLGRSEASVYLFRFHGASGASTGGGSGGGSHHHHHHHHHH
- experiment summary: SPR Biacore, antibody captured by anti-human Fc on CM5, Siglec-15 protein as analyte
We label by threshold. Values of Kd strictly beneath 0.08 nM are Met. Values of 0.08 nM and up are Not met.

binder	class name
174C11C9-hH3L3 (antibody, IgG1, V domains shown, Humanized; hIgG1, Kappa) VH: QVQLVQSGAEVKKPGASVKVSCKASGYIFTDYYMNWVRQAPGQGLEWIGVFNPYSGGISYAQKFKGRVTLTVDTSTSTAYMELSSLRSEDTAVYYCARDYYYLSSHGFYALDYWGQGTTVTVSS VL: DIQLTQSPSSLSASVGDRVTITCRASESVDSYGNSFIHWYQQKPGKAPKLLMYRASNLESGVPSRFSGSGSGTDFTLTISSLQPEDFATYYCQQSNEDPLTFGQGTKLEIK	Not met
174C11C9-hH2L2 (antibody, IgG1, V domains shown, Humanized; hIgG1, Kappa) VH: QVQLVQSGAEVKKPGASVKVSCKASGYIFTDYYMNWVRQAPGQGLEWIGVFNPYSGGISYNQKFKGRVTLTVDTSTSTAYMELSSLRSEDTAVYYCARDYYYLSSHGFYALDYWGQGTTVTVSS VL: DIQLTQSPSSLSASVGDRVTITCRASESVDSYGNSFIHWYQQKPGKAPKLLMYRASNLESGIPSRFSGSGSGTDFTLTISSLQPEDFATYYCQQSNEDPLTFGQGTKLEIK	Not met
21F6C6 chimeric antibody (antibody, human IgG1, V domains shown, also called 21F6C6-mHL) VH: EVMLVESGGGLVKPGGSLKLSCAASGFTFSSYAMSWVRQSPEKRLEWVATISSGGSLIYYPDSVTGRFTISRDNAKSTLYLQMSSLRSEDTAMYYCVRHGYYYGDSTLYYAMDYWGPGTSVTVSS VL: DIVLTQSPASLAVSLGQRATISCKASQSVDYDGDSYMNWYQQKPGQPPKLLIYAASNLESGIPARFSGSGSGTDFTLNIHPVEEEDAATYYCQQSNEAPLTFGAGTKLELK	Met
21F6C6-hH2L2 (antibody, IgG1, V domains shown, Humanized; hIgG1, Kappa) VH: EVQLVESGGGLVKPGGSLRLSCAASGFTFSSYAMSWVRQAPGKGLEWVATISSGGSLIYYADSVTGRFTISRDNAKNTLYLQMNSLRAEDTAVYYCVRHGYYYGDSTLYYAMDYWGQGTTVTVSS VL: DIQLTQSPSSLSASVGDRATITCRASQSVDYDGDSYMNWYQQKPGKAPKLLIYAASNLESGVPSRFSGSGSGTDFTLTISSVQPEDFATYYCQQSNEAPLTFGQGTKLEIK	Met
124B11F6 chimeric antibody (antibody, human IgG1, V domains shown, also called 124B11F6-mHL) VH: EVQLQQSGAELVRPGASVKLSCTASVFNIKDYYMHWVKQRTEQGLEWIGRIDPEDDKTKYAPKFQGKATITADTSSNTAYLHLSTLTSEDTAVYYCVRGWLGYIMDFWGQGTSVTVSS VL: QLVLTQSSSASFSLGASAKLTCTLSSQHSTYTIDWYQQQPLKPPKYVMELKEDGSHSTGDGIPDRFSGSSSGADRYLGISNIQPEDEAVYICGVGATIKEQFVYVFGGGTKVTVL	Not met
